METHOD: NAL depletion under and without ultraviolet irradiation, HPLC with UV detection (281 nm)
CONDITION: 25° C. 24 hours light-shielded, test substance solution 1 mmol/L
PROPERTY_NAME: NAL Depletion (%) without light irradiation
The reply should contain only the number, in %.

Below are worked cases with known answers.
[
  {
    "COMPOUND": "C=CC1CN2CCC1CC2C(O)c1ccnc2ccc(OC)cc12.Cl.O.O (centres unmarked)",
    "VALUE_REPORTED": 0.0
  },
  {
    "COMPOUND": "COc1c2ccoc2cc2oc(=O)ccc12",
    "VALUE_REPORTED": 0.2
  },
  {
    "COMPOUND": "O=C([O-])Cc1ccccc1Nc1c(Cl)cccc1Cl.[Na+]",
    "VALUE_REPORTED": 0.0
  },
  {
    "COMPOUND": "[Na+].[O-][n+]1ccccc1[S-]",
    "VALUE_REPORTED": "−34.1"
  },
  {
    "COMPOUND": "CC(C)O",
    "VALUE_REPORTED": 1.5
  },
  {
    "COMPOUND": "CC(O)CCO (centres unmarked)",
    "VALUE_REPORTED": 0.0
  },
  {
    "COMPOUND": "Cc1ccc(C=C2C(=O)C3(C)CCC2C3(C)C)cc1 (racemic)",
    "VALUE_REPORTED": 0.0
  }
]

Next compound, NAL Depletion (%) without light irradiation to be filled in.
Query string: Need NAL Depletion (%) without light irradiation, item CC(C)OC(=O)C(C)(C)Oc1ccc(C(=O)c2ccc(Cl)cc2)cc1
Result string: 0.0
